# Test system: SF-268
# experiment description: Anticancer assay (SRB), SF-268
# Assay type: cell-based
# applied conditions: human central nervous system cancer line, 48 h, IC50 ± standard error
measured attribute: pIC50
Convention used: pIC50 is expressed as -log10 of the molar concentration.

CC(=O)O[C@H]1C[C@]2(O)[C@@H]3CC[C@@H]4C[C@@H](O)CC[C@]4(C)[C@H]3CC[C@]2(C)[C@H]1c1ccc(=O)oc1 = 4.69
CC(=O)O[C@H]1[C@H]2O[C@]23[C@@H]2CC[C@@H]4C[C@@H](O)CC[C@]4(C)[C@H]2CC[C@]3(C)[C@H]1c1ccc(=O)oc1 = 5.33

Shifting focus to the compound that follows.
// query Quote pIC50 with test system SF-268 for COc1cccc2c1C(=O)c1c(O)c3c(c(O)c1C2=O)C[C@@](O)(C(=O)CO)C[C@@H]3O[C@H]1C[C@H](N)[C@H](O)[C@H](C)O1 [doxorubicin, reference compound]
// result 6.21
